Entry source: patent US20180194762A1

Each entry below carries its reported pIC50.
# targetOrTestSystem: Btk (Homo sapiens)
# Construct: purified from insect cells as a full-length construct containing a N-terminal 6X-His tag; His6 (N); made in house; host or cells: insect cells (Method C)
# experimentNotes: Btk in vitro inhibitory activity (one of Method A TR-FRET, Method B electrophoretic mobility shift, Method C radiometric filter binding)
# Format: biochemical
# measurementContext: wild-type Btk; read-out: Btk-WT IC50
pIC50: −log10 of the molar value.
quantityName: pIC50

> print(dat)
                                   molecule  observedresult
1  CCNC(=O)N1C[C@H](Nc2n[nH]c3nccc(-c4ccc(CNC(=O)c5nc(C(C)(C)C)no5)c(F)c4)c23)CC[C@@H]1C [Example 209]            8.90
2  C=CC(=O)N[C@@H]1CCN(c2n[nH]c3nccc(-c4ccc(CNC(=O)c5ccc(C(C)(C)O)cc5)c(F)c4)c23)C1 [Example 325]            9.79
3  C[C@@H](NC(=O)c1nc(C(C)(C)C)no1)c1ccc(-c2ccnc3[nH]nc(NC4CCOCC4)c23)cc1 [Example 218]            7.72
4  CC(C)(C)c1noc(C(=O)NCc2ccc(-c3ccnc4[nH]nc(N5CCC(NC(=O)c6ccccc6)CC5)c34)cc2F)n1 [Example 208]            9.18
5  C[C@H]1CC[C@@H](Nc2n[nH]c3nccc(-c4ccc(CN5CCn6c(cc7c6CCCC7)C5=O)c(F)c4)c23)CN1C(=O)N(C)C [Example 240]            8.26
6  O=c1c2c(F)cc(C3CC3)cc2ccn1-c1cccc(-c2ccnc3[nH]nc(N[C@@H]4CCNC4)c23)c1CO [Compound 17]            6.51

###

# targetOrTestSystem: Btk (Homo sapiens)
# Construct: purified from insect cells as a full-length construct containing a N-terminal 6X-His tag; His6 (N); made in house; host or cells: insect cells (Method C)
# experimentNotes: Btk in vitro inhibitory activity (one of Method A TR-FRET, Method B electrophoretic mobility shift, Method C radiometric filter binding)
# Type: biochemical
# measurementContext: wild-type Btk; read-out: Btk-WT IC50
quantityName: IC50 (nM)

> print(dat)
                                  structure  unitspec  observedresult
1  C[C@H]1CC[C@@H](Nc2n[nH]c3nccc(-c4ccc(CNC(=O)c5nc(C(C)(C)C)no5)c(F)c4)c23)CN1C1COC1        nM            9.53
2  C=CC(=O)N1CC[C@@H](Nc2n[nH]c3nccc(-c4ccc([C@H](C)NC(=O)c5ccc(C(C)(C)C)cc5)cc4)c23)C1        nM             309
3  CC(C)(O)c1ccc(C(=O)NCc2ccc(-c3ccnc4[nH]nc(N[C@H]5CC[C@H](O)CC5)c34)cc2F)cc1        nM             932

###

# targetOrTestSystem: Btk (Homo sapiens, UniProt Q06187)
# Construct: purified from insect cells as a full-length construct containing a N-terminal 6X-His tag; His6 (N); made in house; host or cells: insect cells (Method C)
# Sequence (Q06187 whole entry): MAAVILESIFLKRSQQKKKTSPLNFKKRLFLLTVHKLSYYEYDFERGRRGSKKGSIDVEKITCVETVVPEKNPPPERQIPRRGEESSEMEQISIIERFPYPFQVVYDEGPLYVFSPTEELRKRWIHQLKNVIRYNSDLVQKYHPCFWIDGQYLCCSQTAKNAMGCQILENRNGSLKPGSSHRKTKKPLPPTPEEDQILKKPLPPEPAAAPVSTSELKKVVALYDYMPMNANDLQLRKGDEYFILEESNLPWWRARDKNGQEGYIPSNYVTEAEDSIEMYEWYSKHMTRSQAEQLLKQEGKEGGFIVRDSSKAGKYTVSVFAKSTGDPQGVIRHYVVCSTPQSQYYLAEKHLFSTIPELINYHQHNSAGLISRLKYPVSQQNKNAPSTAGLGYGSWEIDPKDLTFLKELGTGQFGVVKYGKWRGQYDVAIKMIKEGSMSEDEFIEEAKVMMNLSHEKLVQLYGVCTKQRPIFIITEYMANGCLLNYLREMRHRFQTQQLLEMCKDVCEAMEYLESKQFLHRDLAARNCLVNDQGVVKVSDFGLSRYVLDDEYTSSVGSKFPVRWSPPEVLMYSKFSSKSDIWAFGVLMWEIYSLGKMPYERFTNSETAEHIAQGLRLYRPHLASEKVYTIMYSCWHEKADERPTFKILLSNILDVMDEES
# experimentNotes: Btk in vitro inhibitory activity (one of Method A TR-FRET, Method B electrophoretic mobility shift, Method C radiometric filter binding)
# Type: biochemical
# measurementContext: wild-type Btk; read-out: Btk-WT IC50
Field 'label' (enum: Criterion met / Criterion not met). Set to Criterion met when IC50 is strictly under 20 nM; else Criterion not met.

> print(dat)
                                   molecule              group
1  C[C@@H](NC(=O)c1nc(C(C)(C)C)no1)c1ccc(-c2ccnc3[nH]nc(N4CCS(=O)(=O)CC4)c23)cc1 [Example 220]      Criterion met
2  CC(=O)N[C@@H]1CCN(c2n[nH]c3nccc(-c4ccc(CNC(=O)c5nc(C(C)(C)C)no5)c(F)c4)c23)C1 [Example 373]      Criterion met
3  CC(C)(C)c1nc(C(=O)NCc2ccc(-c3ccnc4[nH]nc(N[C@H]5CC[C@@H](N)CC5)c34)cc2F)no1 [Example 153]      Criterion met
4  CC(C)(C)c1nc(C(=O)NC2(c3ccc(-c4ccnc5[nH]nc(N[C@@H]6CCCNC6)c45)cc3)CC2)no1 [Example 70]  Criterion not met
5  CC(C)c1cc(C(=O)NCc2ccc(-c3ccnc4[nH]nc(N[C@@H]5CCCN(C(=O)N(C)C)[C@@H]5C)c34)cc2F)no1 [Example 305]  Criterion not met
6  COC(=O)N1C[C@H](Nc2n[nH]c3nccc(-c4ccc(CNC(=O)c5nc(C(C)(C)C)no5)c(F)c4)c23)CC[C@@H]1C [Example 410]      Criterion met

###

# targetOrTestSystem: TEC (Homo sapiens, UniProt P42680)
# Sequence (P42680 whole entry): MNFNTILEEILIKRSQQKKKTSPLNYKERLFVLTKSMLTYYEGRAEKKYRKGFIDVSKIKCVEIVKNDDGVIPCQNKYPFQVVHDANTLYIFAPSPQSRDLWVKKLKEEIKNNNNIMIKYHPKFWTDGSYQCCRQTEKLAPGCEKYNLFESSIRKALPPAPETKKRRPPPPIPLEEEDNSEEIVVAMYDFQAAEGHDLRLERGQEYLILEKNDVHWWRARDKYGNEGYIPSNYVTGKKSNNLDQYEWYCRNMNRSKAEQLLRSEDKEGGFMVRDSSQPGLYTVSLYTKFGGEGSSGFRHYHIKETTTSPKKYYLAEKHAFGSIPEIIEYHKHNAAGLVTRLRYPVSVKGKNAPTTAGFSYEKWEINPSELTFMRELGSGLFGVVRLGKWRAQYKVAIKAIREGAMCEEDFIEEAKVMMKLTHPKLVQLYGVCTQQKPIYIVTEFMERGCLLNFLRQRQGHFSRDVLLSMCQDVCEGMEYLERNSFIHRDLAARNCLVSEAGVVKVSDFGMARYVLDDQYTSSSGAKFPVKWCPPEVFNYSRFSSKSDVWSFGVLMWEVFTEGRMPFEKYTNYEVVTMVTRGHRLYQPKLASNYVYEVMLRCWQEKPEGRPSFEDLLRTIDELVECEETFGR
# experimentNotes: Inhibition of a panel of kinases (in vitro HotSpot kinase assay, 33P-ATP, 1 μM ATP)
# Type: biochemical
# measurementContext: ratio of TEC IC50 to Btk IC50 (selectivity)
quantityName: TEC/Btk

> print(dat)
                                   molecule                  targetortestsystem  quantityname  observedresult
1  CC(C)(C)c1nc(C(=O)NCc2ccc(-c3ccnc4[nH]nc(N[C@H]5CC[C@H](O)CC5)c34)cc2F)no1 [Compound 21]  TEC (Homo sapiens, UniProt P42680)       TEC/Btk              59
2  CC(=O)N[C@@H]1CCN(c2n[nH]c3nccc(-c4ccc(CNC(=O)c5nc(C(C)C)no5)c(F)c4)c23)C1 [Example 200]  TEC (Homo sapiens, UniProt P42680)       TEC/Btk             343
3  CC(C)(C)c1ccc(C(=O)NCc2ccc(-c3ccnc4[nH]nc(N[C@H]5CC[C@H](O)CC5)c34)cc2F)cc1 [Compound 12]  TEC (Homo sapiens, UniProt P42680)       TEC/Btk              11
4  CC(C)(C)c1noc(C(=O)NCc2ccc(-c3ccnc4[nH]nc(N[C@H]5CCNC5)c34)cc2F)n1 [Example 162]  TEC (Homo sapiens, UniProt P42680)       TEC/Btk            1391

###

# targetOrTestSystem: TEC (Homo sapiens)
# experimentNotes: Inhibition of a panel of kinases (in vitro HotSpot kinase assay, 33P-ATP, 1 μM ATP)
# Format: biochemical
# measurementContext: ratio of TEC IC50 to Btk IC50 (selectivity)
quantityName: TEC/Btk

> print(dat)
                                  structure  targetortestsystem  quantityname  relationqualifier  observedresult
1  CN1CCCN([C@@H]2CCN(c3n[nH]c4nccc(-c5ccc(CNC(=O)c6noc(C(C)(C)C)n6)c(F)c5)c34)C2)C1=O  TEC (Homo sapiens)       TEC/Btk                  =             591
2  C[C@@H](NC(=O)c1cc(C(C)(C)O)on1)c1ccc(-c2ccnc3[nH]nc(NC4CCN(S(C)(=O)=O)CC4)c23)cc1  TEC (Homo sapiens)       TEC/Btk                  >           10000
3  C[C@@H]1[C@H](Nc2n[nH]c3nccc(-c4ccc(CNC(=O)c5noc(C(C)(C)C)n5)c(F)c4)c23)CCCN1C(=O)C1CC1  TEC (Homo sapiens)       TEC/Btk                  =             115
4  C[C@@H](NC(=O)c1noc(C(C)(C)C)n1)c1ccc(-c2ccnc3[nH]nc(N[C@@H]4CC[C@H](C)N(C(=O)N(C)C)C4)c23)cc1F  TEC (Homo sapiens)       TEC/Btk                  =            1033
5  C=CC(=O)N1CC[C@@H](Nc2n[nH]c3nccc(-c4ccc(CNC(=O)c5ccccc5)c(F)c4)c23)C1  TEC (Homo sapiens)       TEC/Btk                  =              14
6  COC(=O)N1C[C@H](Nc2n[nH]c3nccc(-c4ccc(CNC(=O)c5noc(C(C)(C)C)n5)c(F)c4)c23)CC[C@@H]1C  TEC (Homo sapiens)       TEC/Btk                  =             926

###

# targetOrTestSystem: Btk (Homo sapiens)
# Construct: purified from insect cells as a full-length construct containing a N-terminal 6X-His tag; His6 (N); made in house; host or cells: insect cells (Method C)
# experimentNotes: Btk in vitro inhibitory activity (one of Method A TR-FRET, Method B electrophoretic mobility shift, Method C radiometric filter binding)
# Type: biochemical
# measurementContext: wild-type Btk; read-out: Btk-WT IC50
quantityName: IC50

> print(dat)
                                    compound  quantityname  observedresult
 1  C[C@H]1NCCC[C@H]1Nc1n[nH]c2nccc(-c3ccc(CNC(=O)c4noc(C(C)(C)C)n4)c(F)c3)c12          IC50         29.2 nM
 2  C=CC(=O)N1CC[C@@H](Nc2n[nH]c3nccc(-c4ccc(CNC(=O)c5ccc6sc(C)nc6c5)c(F)c4)c23)C1          IC50         6.54 nM
 3  C=CC(=O)N1CC[C@@H](Nc2n[nH]c3nccc(-c4ccc(CNC(=O)c5cc(Cl)on5)c(F)c4)c23)C1          IC50         3.77 nM
 4  C[C@@H](NC(=O)c1nc(C(C)(C)C)no1)c1ccc(-c2ccnc3[nH]nc(NC4CCCC4)c23)cc1          IC50         10.2 nM
 5  CCC(=O)N1CC[C@@H](Nc2n[nH]c3nccc(-c4ccc(C5(NC(=O)c6noc(C(C)(C)C)n6)CC5)cc4)c23)C1          IC50         52.7 nM
 6  C[C@@H](NC(=O)c1nc(C(C)(C)C)no1)c1ccc(-c2ccnc3[nH]nc(NC4CCN(S(C)(=O)=O)C4)c23)cc1 (some centres unmarked)          IC50         10.5 nM
 7  CC(C)(C)c1nc(NC(=O)Cc2ccc(-c3ccnc4[nH]nc(N[C@@H]5CCNC5)c34)cc2F)no1          IC50      > 10000 nM
 8  C=CC(=O)N(C)[C@@H]1CCN(c2n[nH]c3nccc(-c4ccc(CN(C)C(=O)c5nc(C(C)(C)C)no5)c(F)c4)c23)C1          IC50       0.0678 nM
 9  C=CC(=O)N[C@@H]1CCN(c2n[nH]c3nccc(-c4ccc([C@@H](C)NC(=O)c5cc(C(C)(C)O)on5)cc4)c23)C1          IC50         1.81 nM
10  CC(C)c1noc(C(=O)N[C@H](C)c2ccc(-c3ccnc4[nH]nc(N5CCS(=O)(=O)CC5)c34)cc2)n1          IC50           31 nM
11  CC(=O)N[C@@H]1CCN(c2n[nH]c3nccc(-c4ccc(CNC(=O)c5nc6c(o5)CCCC6)c(F)c4)c23)C1          IC50          137 nM
12  CC(=O)N[C@@H]1CCN(c2n[nH]c3nccc(-c4ccc([C@@H](C)NC(=O)c5cc(C(C)(C)O)on5)cc4)c23)C1          IC50         48.3 nM
13  CC(C)(C)c1noc(C(=O)NCc2ccc(-c3ccnc4[nH]nc(N[C@H]5CCNC5)c34)cc2F)n1          IC50          4.5 nM
14  CN(C)C(=O)N1CC[C@@H](Nc2n[nH]c3nccc(-c4ccc(CNC(=O)c5coc(C(C)(C)C)n5)c(F)c4)c23)C1          IC50         8.97 nM
